- measured-target: T1, recombinant His6-tagged extracellular domain of human Clec4C (C-type lectin domain family 4, member C) (human, UniProt Q8WTT0 44-213)
- T1 construct: Same antigen for immunisation, panning and ELISA; also called His-Clec4C(EC); pMET7-SIgK-His-Clec4C(EC)
- T1 sequence: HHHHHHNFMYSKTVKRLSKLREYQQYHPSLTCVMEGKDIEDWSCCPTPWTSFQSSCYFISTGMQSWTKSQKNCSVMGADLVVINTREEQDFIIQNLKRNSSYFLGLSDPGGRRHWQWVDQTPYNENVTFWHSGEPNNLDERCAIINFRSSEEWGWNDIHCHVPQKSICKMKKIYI
- measurement-notes: ELISA, antigen-coated vs uncoated blocked wells
result-type: ELISA ratio coated/uncoated

| binder | meas-value |
| --- | --- |
| 2CL26 (VHH, pMECS VHH-HA-His6; TG1 periplasmic extract) VHH: QVQLQESGGGWVQPGDSLRLSCAASGFTFSDYAVGWFRQAPGKEREFVARITRLGNGPYYSASVKGRFTISRDNARDMAYLKMDALTPEDTATYYCAAGRTLASTHDTKTSPQTYDYWGLGTQVTVSS | 21.4 |
| 2CL16 (VHH, pMECS VHH-HA-His6; TG1 periplasmic extract) VHH: QVQLQESGGGLVQPGGSLRLSCAASGDTFSNYAMGWFRQAPGKAREFVAAISRSAGSTYHVDSVKGRFTISRDNAMNTVYLQMNSLQPEDTAHYYCAARLTFNLIDYYTAETRYTYWGQGTQVTVSS | 14.1 |
| 2CL46 (VHH, pMECS VHH-HA-His6; TG1 periplasmic extract) VHH: QVQLQESGGGLVQAGGSLRLSCAVSGRTFSSYAMGWFRQARGKEREFVAAVEWSSGSTFYTDSVKGRFAISRDIAKNTVYLQMNSLKPEDTAVYYCAGDHTGKLVFSKTSDYWGQGTQVTVSS | 4.82 |
